# STUDY_TARGET: CaRvs167
# TEST_METHOD_NOTES: SPOT peptide array binding signal intensity (averaged, normalized) (arbitrary units (background-subtracted, floor 0; scale differs between SH3 domains)); higher = stronger binding of the SH3 domain to the peptide
Collected SPOT peptide array binding signal intensity values appear next to each entry.
REPORTED_METRIC: SPOT peptide array binding signal intensity

> print(dat)
            binder  recorded.value
1  KRRTSLFPWLHKPGI            5.67
2  NRLRKRLNLPSEISI            6.83
3  LKQRFFLMFPKSIIW            89.2
4  AIPPPVPNRPGGTTN            1180
5  APERAVPILPPRNNV             414
6  VAPPPLPNRQLPNLD            3100
7  NSMRPPLLIPAATTK            83.8

Data credit: the supplement of paper PMC4466140
